Target: UniProt:Q96P20
Assay: Human whole blood IL1β release assay
Assay type: cell-based
Settings: LPS 1 μg/ml, nigericin 10 μM, IL-1β AlphaLisa, 10 μM top dose (Example 2: top dose of 30 μM), read-out: HWB IC50
Property name: IC50

Observe how each entry below is paired with its result.
Compound	Data value
[2H]C([2H])([2H])Oc1cc(-c2ccc3c(c2Nc2nnc(S(=O)(=O)N4CCC(N(C)C)CC4)[nH]2)CCO3)ccn1 [Example 218]	≤ 0.5 µM
CN1CC2(CC1=O)CN(S(=O)(=O)c1nnc(Nc3c4c(cc5c3CCC5)CCC4)[nH]1)C2 [Example 331]	≤ 5 µM
CC(C)N(CCNS(=O)(=O)c1nnc(Nc2c3c(cc4c2CCC4)CCC3)[nH]1)C(C)C [Example 110]	≤ 10 µM

Incoming: Can you look up the measured IC50 of CN(C)Cc1cccc(S(=O)(=O)c2nnc(Nc3c4c(cc5c3CCC5)CCC4)[nH]2)c1 [Example 44] for me?
Outgoing: ≤ 5 µM

Incoming: Also O=S(=O)(c1nnc(Nc2c3c(cc4c2CCC4)CCC3)[nH]1)N1CC2(CCC(O)C2)C1 (centres unmarked) [Example 346] , if possible.
Outgoing: ≤ 5 µM

----------
Biological target: NLRP3 (Homo sapiens, UniProt Q96P20)
Sequence (Q96P20 whole entry): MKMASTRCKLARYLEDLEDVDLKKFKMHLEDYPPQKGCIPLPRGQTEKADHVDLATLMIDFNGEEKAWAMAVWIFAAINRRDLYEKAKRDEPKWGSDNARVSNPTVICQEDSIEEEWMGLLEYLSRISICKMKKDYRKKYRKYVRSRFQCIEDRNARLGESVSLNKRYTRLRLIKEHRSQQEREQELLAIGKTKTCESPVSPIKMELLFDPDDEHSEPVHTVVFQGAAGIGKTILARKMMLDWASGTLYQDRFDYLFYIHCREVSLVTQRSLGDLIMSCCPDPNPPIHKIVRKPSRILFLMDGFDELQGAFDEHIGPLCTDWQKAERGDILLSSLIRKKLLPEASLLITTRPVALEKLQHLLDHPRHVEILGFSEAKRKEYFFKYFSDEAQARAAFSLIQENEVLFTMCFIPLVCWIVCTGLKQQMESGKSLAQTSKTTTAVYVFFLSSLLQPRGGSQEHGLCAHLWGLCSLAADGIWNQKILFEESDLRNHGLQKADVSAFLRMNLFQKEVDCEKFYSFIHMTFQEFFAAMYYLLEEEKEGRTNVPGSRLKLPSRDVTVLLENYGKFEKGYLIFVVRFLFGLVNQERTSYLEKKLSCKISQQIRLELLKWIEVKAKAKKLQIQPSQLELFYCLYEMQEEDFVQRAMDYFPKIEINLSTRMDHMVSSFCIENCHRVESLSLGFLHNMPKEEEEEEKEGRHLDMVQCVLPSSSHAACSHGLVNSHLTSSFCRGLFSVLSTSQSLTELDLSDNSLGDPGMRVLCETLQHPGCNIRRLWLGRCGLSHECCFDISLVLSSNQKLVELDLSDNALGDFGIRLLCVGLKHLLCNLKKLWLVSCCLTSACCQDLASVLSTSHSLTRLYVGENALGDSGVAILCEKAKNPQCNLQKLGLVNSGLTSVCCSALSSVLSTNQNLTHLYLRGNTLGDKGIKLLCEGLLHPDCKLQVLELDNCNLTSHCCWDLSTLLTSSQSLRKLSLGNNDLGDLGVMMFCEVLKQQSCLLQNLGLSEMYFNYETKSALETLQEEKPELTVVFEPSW
Experiment: Human whole blood IL1β release assay
Type: cell-based
Details: LPS 1 μg/ml, nigericin 10 μM, IL-1β AlphaLisa, 10 μM top dose (Example 2: top dose of 30 μM), read-out: HWB IC50
Property name: IC50

Worked examples, 3 compounds total:
Compound	Tested on	Property name	Data value
CN1CCCCC1CCS(=O)(=O)c1nnc(Nc2c3c(cc4c2CCC4)CCC3)[nH]1 (stereo not shown) [Example 59]	NLRP3 (Homo sapiens, UniProt Q96P20)	IC50	≤ 1000 nM
COc1cc(-c2cc(F)cc(C(C)C)c2Nc2nnc(S(=O)(=O)N3CCC(N(C)C)CC3)[nH]2)ccn1 [Example 261]	NLRP3 (Homo sapiens, UniProt Q96P20)	IC50	≤ 1000 nM
CN1CCC2(C1)CN(S(=O)(=O)c1nnc(Nc3c(-c4ccnc(OC(F)F)c4)ccc4c3CCO4)[nH]1)C2 [Example 212]	NLRP3 (Homo sapiens, UniProt Q96P20)	IC50	≤ 500 nM

Continue with the compound presented below.
Incoming: Lab note: need IC50 with NLRP3 (Homo sapiens, UniProt Q96P20) for entry CS(=O)(=O)c1nnc(Nc2c3c(cc4c2CCC4)CCC3)[nH]1 [Example 75] , please look it up.
Outgoing: ≤ 10000 nM

----------
Target: NLRP3 (Homo sapiens)
Experiment: THP-1 cells pyroptosis assay
Format: cell-based
Parameters: Seed THP-1 cells (25,000 cells/well) containing 1.0 μg/ml LPS; host or cells: THP-1
Conditions: LPS 1.0 μg/ml, nigericin 5 μM, resazurin readout, 10 μM top dose (Example 2: top dose of 30 μM)
We begin with a simple list: items and their reported IC50.

Compound	IC50
O=S(=O)(NCc1ccccc1)c1nnc(Nc2c3c(cc4c2CCC4)CCC3)[nH]1	≤ 5000 nM

Incoming: Give its IC50 value. Item: O=S(=O)(CC1CCCN1)c1nnc(Nc2c3c(cc4c2CCC4)CCC3)[nH]1 (centres unmarked)
Outgoing: ≤ 10000 nM

----------
Assay: PK, intravenous administration
Format: in vivo
Settings: rat, plasma, male Sprague Dawley rats, dose about 1 mg/kg
Property name: AUC (ng·h/mL)

Molecule	Reading unit	AUC
CC(C)N1CCC2(C1)CN(S(=O)(=O)c1nnc(Nc3c4c(cc5c3CCC5)CCC4)[nH]1)C2 [Example 264]	ng·h/mL	280

[1] CN(C)C1CCCN(S(=O)(=O)c2nnc(Nc3c4c(cc5c3CCC5)CCC4)[nH]2)CC1 (stereo not drawn) [Example 271]
[2] CN(C)Cc1ccc(S(=O)(=O)c2nnc(Nc3c4c(cc5c3CCC5)CCC4)[nH]2)cc1 [Example 43]
Incoming: Could you check which of 1 and 2 has a smaller value for AUC? Output the label that corresponds to your choice.
Outgoing: 1
